Experiment: yeast display, Sf9 membrane polyspecificity reagent, FACS + sequencing; frameworks hold sequencing errors
readout: polyreactivity (PSR sort gate)

item_sequence=QVQLVESGGGLVQAGGSLRLSCDDSGGIFQENAMGWYTQAPGKERELVATSTRSTGSTYYADSVKGRFTISRDTAKNTVYLQMNSLKPEDTAVYYCAARRLSQYYRYAYKYDYWGQVTQVTVSS readout="polyreactivity (PSR sort gate)" assay_value="high polyreactivity"
item_sequence=QVQLVESGGGLVQAGGSLRLSCAASGSIFVYNAMGWYRQAPGKERELVAAISQRGGSTYYADSVKGRFTISRDYSKNTVYLQMNSLKPEDTAVYYCAAGPGDSGDDYWGQGTQVTVSS readout="polyreactivity (PSR sort gate)" assay_value="low polyreactivity"
item_sequence=QVQLVESGGGLVQAGGSLRLSCAASGRIIQGYAIGWYRQAPGKERELVDAIRSGSGSTYYADSVKGRFTISRDNAKNTVYLQMNSLKPEDTAVYYCAADRYYWGQGTQVTVSS readout="polyreactivity (PSR sort gate)" assay_value="low polyreactivity"
item_sequence=QVQLVESGGGLVQAGGILRLSCAASGFTFHRYAMGWYRQAPGKERELVARITRGGSTKYADSVKGRFTISRDNAKNTVYLQMNSLKPEDTAVYYCAADYGGFLGYDYWGQGNQVTVSS readout="polyreactivity (PSR sort gate)" assay_value="high polyreactivity"
item_sequence=QVQLVESGGGLVQAGGSLRLSCAASGSTFYYNAMGGYRQAPGKEWELVATITSAGRTNYADSVKGRFTISRVNAKNTDYLQMNSLKPEDTAVYYCNARYRLSRYNYWGQGTQVTVSS readout="polyreactivity (PSR sort gate)" assay_value="low polyreactivity"

* * *

Test: yeast display, Sf9 membrane polyspecificity reagent, FACS + sequencing; frameworks hold sequencing errors
readout: polyreactivity (PSR sort gate)

item_sequence=QVQLVESGGGLVQAGGSLRLSCAASGRTFFTYAMGWYRQAPGKERELVAAITWSGGSTYYADSVKGRFTISRDNAKNTVYLQMNSLKPEDTAVYYCAADGSVAYYSAFGSVQIWYYYWGQGTQVTVSS readout="polyreactivity (PSR sort gate)" assay_value="low polyreactivity"
item_sequence=QFQLVESGGGLVQAGGSLRLSCAASGSIFTYNVMGWYRQAPRKERELVAAISDGDGSTYADSVKGRFTISRDNAKNTVYLQMNSLKPEDTAVYYCAAVDGRYLGGFNSRDGDWGQGTQVTVSS readout="polyreactivity (PSR sort gate)" assay_value="low polyreactivity"
item_sequence=QVQLVESGGGLVQAGGSLRLSCAASGFIFYGYTMGWYRQAPGKERELLARISRRGGSTYYADSVKGRFTISRDNAKNTVYLQMNSLKPEDTAVYYCATDDARRGYGYGYWGQGPQVTVSS readout="polyreactivity (PSR sort gate)" assay_value="low polyreactivity"
item_sequence=QVQLVESGGGLVQAGGSLRLSCAASGKTFVYYTMGWYRQAPGKERELVAAISYSGGSTYYADSVKGRFTLSRDNAKNTVYLQMNSLKPEDTAVYYCAKQVADRYDYWGQGTQVTVSS readout="polyreactivity (PSR sort gate)" assay_value="low polyreactivity"

* * *

Assay: yeast display, Sf9 membrane polyspecificity reagent, FACS + sequencing; frameworks hold sequencing errors
readout: polyreactivity (PSR sort gate)

item_sequence=QVQLVESGGGLVQAGGSLRLSCAASGRIFEGYAMGWYRQAPGKEELVAAITSDASTYYADSVKGRFTISRDNAKNTVYLQMNSLNPEDTAVYYCNAYTRGLEYDYWGQGTQVTVSS assay_value="high polyreactivity"
item_sequence=QLQLGESGGGLVQAGASLRLSFAPSGRLFDRYAMGWYRTAPATERELVASIRSGGSTNYADSVKGRFTISRDNAKNTGYLQMNSLNPEDTAVYYCAAVLRPVRFYSGYYYWGQGTQVTVSS assay_value="high polyreactivity"
item_sequence=KVQLVESGGGLVQAGGSLRLSCAASGRIFKYYAMGWYRQAPGKEMELVARISRSSGNTYYADSVKGRFTISRDNAKKTVYLQMNSLIPEDTAVYYCATVPHYNGFNYWGQGTQVTVSS assay_value="high polyreactivity"
